Documented Inhibition across a set of compounds
- Test system: Plasmodium falciparum
- measurementProtocol: GSK_TCMDC: Inhibition of Plasmodium falciparum 3D7 in whole red blood cells, using parasite LDH activity as an index of growth. Test compounds present at 2uM
- Assay type: functional
Report the value in % with no unit label.

>>> reportedmeasurement("Cc1cnc2cc3c(cc2c1N1CCN(C)CC1)NCC3")
100

Find the recorded Inhibition belonging to "N=C(N)Nc1nc(-c2ccc(NCc3ccc(CNc4cccc(-c5csc(NC(=N)N)n5)c4)cc3)cc2)cs1" and report it.
100

---

- Tested on: Plasmodium falciparum
- measurementProtocol: GSK_TCMDC: Inhibition of Plasmodium falciparum 3D7 in whole red blood cells, using parasite LDH activity as an index of growth. Test compounds present at 2uM
- Format: functional
recordedEndpoint: Inhibition (%)
Report the value in % with no unit label.

>>> reportedmeasurement("Oc1ccc2ccccc2c1C=NNc1nc(=Nc2ccccc2)nc(N2CCOCC2)[nH]1")
100
>>> reportedmeasurement("Nc1nc(N)c2c(ccc3[nH]c(-c4ccccc4Cl)nc32)n1")
100
>>> reportedmeasurement("CO/C(=C\\C=C\\c1cc2cc(Cl)c(Cl)cc2[nH]1)C(=O)NCCCN1CCN(Cc2ccccc2)CC1")
94
>>> reportedmeasurement("COc1ccc(Nc2ncc3c(-c4cccc(NC(=O)Cc5cccc(F)c5)c4)c[nH]c3n2)cc1OC")
100
>>> reportedmeasurement("CC(C)(O)CC(C)(C)c1cc(Cl)ccc1O")
96

Find the recorded Inhibition belonging to Cc1cccc2nc(-c3ccc(-c4cccc(CN5CCCC5CN)c4)cc3)[nH]c12.O=C(O)C(F)(F)F (configuration not stated) and report it.
91

Find the recorded Inhibition belonging to "COc1cccc(CNC[C@@H](O)[C@H](Cc2ccccc2)NC(=O)c2cc3c4c(c2)c(C(C)C)cn4CCS(=O)(=O)N3C)c1.O=CO" and report it.
98

Find the recorded Inhibition belonging to "COc1ccc(-c2cc(-c3nc4cc(CN)ccc4[nH]3)c(=O)n(C)c2)cc1OC" and report it.
85

Find the recorded Inhibition belonging to "Cc1ccc(O)c(C(=O)c2cnc3c(c2)c(-c2ccc(F)cc2)c(C#N)c(=O)n3C)c1" and report it.
93

Find the recorded Inhibition belonging to "O=C(N[C@@H](CC1CCCCC1)C(=O)NCCN1CCOCC1)c1ccc(O)c(-c2ccc(Cl)c(Cl)c2)c1" and report it.
97

Find the recorded Inhibition belonging to "Cl.N=C(N)NN=Cc1c2ccccc2c(Cl)c2ccc(Cl)cc12" and report it.
98

Find the recorded Inhibition belonging to Cc1cc(OCc2ccccc2)c(OCc2ccccc2)cc1C(O)CN(C)Cc1ccccc1.Cl (configuration not stated) and report it.
96

Find the recorded Inhibition belonging to "COc1ccc(-c2nc(NCc3ccccc3)c3cc(OC)c(OC)cc3n2)cc1" and report it.
100

Find the recorded Inhibition belonging to CN(C)CC(O)C(c1ccccc1)c1ccc(Cl)cc1.O=C(O)CCC(=O)O (configuration not stated) and report it.
99

Find the recorded Inhibition belonging to "O=C(Cc1cccc(Cl)c1)Nc1ccc(N2CCC(NCc3ccc4ncccc4c3)CC2)cc1" and report it.
81

Find the recorded Inhibition belonging to "Nc1cccc(CNCc2ccc(-c3ccc(-c4nc5ccccc5[nH]4)s3)cc2)c1.O=C(O)C(F)(F)F" and report it.
100

Find the recorded Inhibition belonging to O=C(/C=C/c1ccc(Cl)c(Cl)c1)NCCCCCN1CCCC(C(=O)Nc2cccc(Cl)c2)C1 (configuration not stated) and report it.
99

Find the recorded Inhibition belonging to "CCCCn1c(N)c(N(Cc2ccco2)C(=O)C=Cc2cc(OC)c3c(c2)OCCO3)c(O)nc1=O" and report it.
85

Find the recorded Inhibition belonging to "O=C(O)C(F)(F)F.Oc1ccc(CCNc2nc(NCCCOc3cccc(CN4CCCCC4)c3Cl)nc(N3CCNCC3)n2)cc1" and report it.
100

Find the recorded Inhibition belonging to CC(O)c1cccc(-c2ccc(Nc3ccnc4cc(-c5nccs5)ccc34)cc2)c1.Cl (configuration not stated) and report it.
91

Find the recorded Inhibition belonging to CS(=O)(=O)O.NC1=NC(CCc2ccccc2)N(c2ccccc2)C(N)=N1 (configuration not stated) and report it.
94
